system: HepG2; assay: Antiproliferative activity against human HepG2 cells assessed as inhibition of cell growth incubated for 48 hrs by CCK-8 reagent based spectrophotometric analysis; format: functional; settings: HepG2, 48 h
pIC50: −log10 of the molar value.
property: pIC50

input smiles	subject of test	pIC50
C=C(C)[C@@H]1CC[C@]2(C(=O)O)CC[C@]3(C)[C@H](CC[C@@H]4[C@@]5(C)C[C@@H](Cc6cn([C@]7(CO)O[C@@H](n8ccc(N)nc8=O)[C@H](O)[C@@H]7O)nn6)[C@H](O)C(C)(C)[C@@H]5CC[C@]43C)[C@@H]12	HepG2	4.14

P = C=C(C)[C@@H]1CC[C@]2(C(=O)O)CC[C@]3(C)[C@H](CC[C@@H]4[C@@]5(C)C[C@@H](Cc6cn([C@H]7C[C@H](n8cc(C)c(O)nc8=O)O[C@@H]7CO)nn6)[C@H](O)C(C)(C)[C@@H]5CC[C@]43C)[C@@H]12
Q = C=C(C)[C@@H]1CC[C@]2(C(=O)OC)CC[C@]3(C)[C@H](CC[C@@H]4[C@@]5(C)C[C@@H](Cc6cn([C@]7(CO)O[C@@H](n8ccc(N)nc8=O)[C@H](O)[C@@H]7O)nn6)[C@H](O)C(C)(C)[C@@H]5CC[C@]43C)[C@@H]12
# return whichever of P and Q has the smaller pIC50 Mark your answer with the label of the selected entry. Q

====

system: HepG2; assay: Antiproliferative activity against human HepG2 cells assessed as inhibition of cell growth incubated for 48 hrs by CCK-8 reagent based spectrophotometric analysis; type: functional; settings: HepG2, 48 h
pIC50: −log10 of the molar value.
property: pIC50

Consider the reported pIC50 for these compounds:
input smiles	observed value
C=C(C)[C@@H]1CC[C@]2(C(=O)OC)CC[C@]3(C)[C@H](CC[C@@H]4[C@@]5(C)C[C@@H](Cc6cn([C@]7(CO)O[C@@H](n8ccc(O)nc8=O)[C@H](O)[C@@H]7O)nn6)C(=O)C(C)(C)[C@@H]5CC[C@]43C)[C@@H]12	4.20
C=C(C)[C@@H]1CC[C@]2(C(=O)OC)CC[C@]3(C)[C@H](CC[C@@H]4[C@@]5(C)C[C@@H](Cc6cn([C@H]7C[C@H](n8cc(C)c(O)nc8=O)O[C@@H]7CO)nn6)C(=O)C(C)(C)[C@@H]5CC[C@]43C)[C@@H]12	5.02

1 = C=C(C)[C@@H]1CC[C@]2(C(=O)OC)CC[C@]3(C)[C@H](CC[C@@H]4[C@@]5(C)C[C@@H](Cc6cn([C@H]7C[C@H](n8cc(C)c(O)nc8=O)O[C@@H]7CO)nn6)[C@H](O)C(C)(C)[C@@H]5CC[C@]43C)[C@@H]12
2 = C=C(C)[C@@H]1CC[C@]2(C(=O)OC)CC[C@]3(C)[C@H](CC[C@@H]4[C@@]5(C)C[C@@H](Cc6cn([C@]7(CO)O[C@@H](n8ccc(N)nc8=O)[C@@H](F)[C@@H]7O)nn6)[C@H](O)C(C)(C)[C@@H]5CC[C@]43C)[C@@H]12
# return whichever of 1 and 2 has the smaller pIC50 Mark your answer with the label of the selected entry. 2

====

tested on: KYSE-150 cell line; assay: Antiproliferative activity against human KYSE-150 cell line assessed as inhibition of cell growth incubated for 48 hrs by CCK-8 reagent based spectrophotometric analysis; format: functional; details: KYSE-150, 48 h
// reported pIC50 per item
Keep it numeric: pIC50 is minus log10 of the concentration in mol/L.

Consider the compound `C=C(C)[C@@H]1CC[C@]2(C(=O)OC)CC[C@]3(C)[C@H](CC[C@@H]4[C@@]5(C)C[C@@H](Cc6cn([C@H]7C[C@H](n8cc(C)c(O)nc8=O)O[C@@H]7CO)nn6)C(=O)C(C)(C)[C@@H]5CC[C@]43C)[C@@H]12` and give its measured pIC50. 5.25

Entry `C=C(C)[C@@H]1CC[C@]2(C(=O)OC)CC[C@]3(C)[C@H](CC[C@@H]4[C@@]5(C)C[C@@H](Cc6cn([C@]7(CO)O[C@@H](n8ccc(N)nc8=O)[C@@H](F)[C@@H]7O)nn6)[C@H](O)C(C)(C)[C@@H]5CC[C@]43C)[C@@H]12` please 4.53

Entry `C=C(C)[C@@H]1CC[C@]2(C(=O)OC)CC[C@]3(C)[C@H](CC[C@@H]4[C@@]5(C)C[C@@H](Cc6cn([C@]7(CO)O[C@@H](n8ccc(N)nc8=O)[C@H](O)[C@@H]7O)nn6)[C@H](O)C(C)(C)[C@@H]5CC[C@]43C)[C@@H]12` please 4.68

Entry `C=C(C)[C@@H]1CC[C@]2(C(=O)OC)CC[C@]3(C)[C@H](CC[C@@H]4[C@@]5(C)C[C@@H](Cc6cn([C@]7(CO)O[C@@H](n8ccc(O)nc8=O)[C@H](O)[C@@H]7O)nn6)[C@H](O)C(C)(C)[C@@H]5CC[C@]43C)[C@@H]12` please 4.69

Entry `C=C(C)[C@@H]1CC[C@]2(C(=O)O)CC[C@]3(C)[C@H](CC[C@@H]4[C@@]5(C)C[C@@H](Cc6cn([C@H]7C[C@H](n8cc(C)c(O)nc8=O)O[C@@H]7CO)nn6)[C@H](O)C(C)(C)[C@@H]5CC[C@]43C)[C@@H]12` please 5.12

Entry `C=C(C)[C@@H]1CC[C@]2(C(=O)O)CC[C@]3(C)[C@H](CC[C@@H]4[C@@]5(C)C[C@@H](Cc6cn([C@]7(CO)O[C@@H](n8ccc(N)nc8=O)[C@H](O)[C@@H]7O)nn6)[C@H](O)C(C)(C)[C@@H]5CC[C@]43C)[C@@H]12` please 4.37

Entry `C=C(C)[C@@H]1CC[C@]2(C(=O)OC)CC[C@]3(C)[C@H](CC[C@@H]4[C@@]5(C)C[C@@H](Cc6cn([C@]7(CO)O[C@@H](n8ccc(O)nc8=O)[C@@H](F)[C@@H]7O)nn6)[C@H](O)C(C)(C)[C@@H]5CC[C@]43C)[C@@H]12` please 4.97

Entry `C=C(C)[C@@H]1CC[C@]2(C(=O)OC)CC[C@]3(C)[C@H](CC[C@@H]4[C@@]5(C)C[C@@H](Cc6cn([C@]7(CO)O[C@@H](n8ccc(N)nc8=O)[C@@H](F)[C@@H]7O)nn6)C(=O)C(C)(C)[C@@H]5CC[C@]43C)[C@@H]12` please 4.72

Entry `C=C(C)[C@@H]1CC[C@]2(C(=O)O)CC[C@]3(C)[C@H](CC[C@@H]4[C@@]5(C)CC[C@H](O)C(C)(C)[C@@H]5CC[C@]43C)[C@@H]12` please 4.62

Entry `C=C(C)[C@@H]1CC[C@]2(C(=O)OC)CC[C@]3(C)[C@H](CC[C@@H]4[C@@]5(C)C[C@@H](Cc6cn([C@]7(CO)O[C@@H](n8ccc(O)nc8=O)[C@H](O)[C@@H]7O)nn6)C(=O)C(C)(C)[C@@H]5CC[C@]43C)[C@@H]12` please 4.44

Entry `C=C(C)[C@@H]1CC[C@]2(C(=O)OC)CC[C@]3(C)[C@H](CC[C@@H]4[C@@]5(C)C[C@@H](Cc6cn([C@]7(CO)O[C@@H](n8ccc(N)nc8=O)[C@H](O)[C@@H]7O)nn6)C(=O)C(C)(C)[C@@H]5CC[C@]43C)[C@@H]12` please 4.16

Entry `C=C(C)[C@@H]1CC[C@]2(C(=O)OC)CC[C@]3(C)[C@H](CC[C@@H]4[C@@]5(C)C[C@@H](Cc6cn([C@H]7C[C@H](n8cc(C)c(O)nc8=O)O[C@@H]7CO)nn6)[C@H](O)C(C)(C)[C@@H]5CC[C@]43C)[C@@H]12` please 5.11

Entry `C=C(C)[C@@H]1CC[C@]2(C(=O)OC)CC[C@]3(C)[C@H](CC[C@@H]4[C@@]5(C)C[C@@H](Cc6cn([C@]7(CO)O[C@@H](n8ccc(O)nc8=O)[C@@H](F)[C@@H]7O)nn6)C(=O)C(C)(C)[C@@H]5CC[C@]43C)[C@@H]12` please 4.98

====

assay: Aqueous solubility of the compound in […] by HPLC analysis; format: physicochemical
property: solubility (µM)
Report only the number, with the unit µM understood.

Consider the compound `C=C(C)[C@@H]1CC[C@]2(C(=O)OC)CC[C@]3(C)[C@H](CC[C@@H]4[C@@]5(C)C[C@@H](Cc6cn([C@H]7C[C@H](n8cc(C)c(O)nc8=O)O[C@@H]7CO)nn6)C(=O)C(C)(C)[C@@H]5CC[C@]43C)[C@@H]12` and give its measured solubility. 2.56

====

tested on: A549; test: Antiproliferative activity against human A549 cells assessed as inhibition of cell growth incubated for 48 hrs by CCK-8 reagent based spectrophotometric analysis; format: functional; details: A549, 48 h
property: IC50 (µM)

Consider the reported IC50 for these compounds:
compound	observed value
C=C(C)[C@@H]1CC[C@]2(C(=O)OC)CC[C@]3(C)[C@H](CC[C@@H]4[C@@]5(C)C[C@@H](Cc6cn([C@]7(CO)O[C@@H](n8ccc(O)nc8=O)[C@H](O)[C@@H]7O)nn6)[C@H](O)C(C)(C)[C@@H]5CC[C@]43C)[C@@H]12	53.2
C=C(C)[C@@H]1CC[C@]2(C(=O)OC)CC[C@]3(C)[C@H](CC[C@@H]4[C@@]5(C)C[C@@H](Cc6cn([C@]7(CO)O[C@@H](n8ccc(O)nc8=O)[C@@H](F)[C@@H]7O)nn6)[C@H](O)C(C)(C)[C@@H]5CC[C@]43C)[C@@H]12	36.4
C=C(C)[C@@H]1CC[C@]2(C(=O)O)CC[C@]3(C)[C@H](CC[C@@H]4[C@@]5(C)CC[C@H](O)C(C)(C)[C@@H]5CC[C@]43C)[C@@H]12 [BETULINIC ACID]	69.8

a = C=C(C)[C@@H]1CC[C@]2(C(=O)OC)CC[C@]3(C)[C@H](CC[C@@H]4[C@@]5(C)C[C@@H](Cc6cn([C@H]7C[C@H](n8cc(C)c(O)nc8=O)O[C@@H]7CO)nn6)[C@H](O)C(C)(C)[C@@H]5CC[C@]43C)[C@@H]12
b = Cc1cn([C@H]2C[C@H](N=[N+]=[N-])[C@@H](CO)O2)c(=O)[nH]c1=O [ZIDOVUDINE]
a or b : whose IC50 is greater? Mark your answer with the label of the selected entry. a
